- run.description: Gibbs free energy of ion transfer and ion transfer potentials across the water and DCE phase
- Type: physicochemical
- condition.notes: transfer from water to DCE
Quick reference: Δφw→DCE^0 (standard ion transfer potential) of the listed items.
Answer format: value, then unit.

Here are 7 molecules together with their reported answers.
molecule	reported.value
F[P-](F)(F)(F)(F)F [PF6^−]	−90 mV
Br [Br^−]	−399 mV
[K+] [K^+]	−548 mV
CCCC[N+](CCCC)(CCCC)CCCC [NBu4^+, tetrabutylammonium]	226 mV
Cl [Cl^−]	−481 mV
[Na+] [Na^+]	−610 mV
[H+] [H^+]	−627 mV

Shift focus to the following entry.
Query: Δφw→DCE^0 (standard ion transfer potential); subject: [O-][Cl+3]([O-])([O-])O [ClO4^−]
−178 mV

// data source = patent US20240246042A1
